# experimental system: Adenosine receptor A2a (Homo sapiens, UniProt P29274)
# Sequence (P29274 whole entry): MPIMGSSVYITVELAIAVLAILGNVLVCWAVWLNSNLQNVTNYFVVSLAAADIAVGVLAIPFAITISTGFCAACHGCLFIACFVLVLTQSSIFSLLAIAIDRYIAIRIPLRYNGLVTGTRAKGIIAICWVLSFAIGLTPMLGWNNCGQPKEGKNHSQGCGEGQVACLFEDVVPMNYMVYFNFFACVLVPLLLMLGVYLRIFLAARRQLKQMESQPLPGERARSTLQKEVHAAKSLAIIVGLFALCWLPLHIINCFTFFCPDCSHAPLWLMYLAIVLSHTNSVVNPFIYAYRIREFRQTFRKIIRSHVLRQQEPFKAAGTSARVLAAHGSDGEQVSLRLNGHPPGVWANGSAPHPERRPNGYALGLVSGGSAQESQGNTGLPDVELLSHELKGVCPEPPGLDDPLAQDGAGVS
# procedure summary: Displacement of [3 H]2-[p-(2-carboxyethyl)phenyl-ethylamino]-5'-N-ethylcarboxamidoadenosine from recombinant human adenosine receptor A2A expressed in HEK293 cell membranes at 10 uM after 60 mins by liquid scintillation counting method relative to control
attribute measured: inhibition

compound smiles	inhibition
CN(C)c1nc(Cl)nc2c1ncn2[C@H]1[C@H](O)[C@H](O)[C@]2(C(=O)O)C[C@H]12	< 10%

Problem: Find the recorded inhibition belonging to `O[C@@H]1[C@H](O)[C@@H]2C[C@@H]2[C@H]1n1cnc2c(NCc3cccc(Cl)c3)nc(Cl)nc21` and report it.
Solution: > 50%

Problem: For the compound shown here, `Fc1ccc(C#Cc2nc(NCc3cccc(Cl)c3)c3nc[nH]c3n2)cc1F` , give the reported inhibition.
Solution: < 10%

---

# experimental system: Adenosine receptor A2a (Homo sapiens, UniProt P29274)
# procedure summary: Displacement of [3 H]2-[p-(2-carboxyethyl)phenyl-ethylamino]-5'-N-ethylcarboxamidoadenosine from recombinant human adenosine receptor A2A expressed in HEK293 cell membranes at 10 uM after 60 mins by liquid scintillation counting method relative to control
attribute measured: inhibition

Guide cases for inhibition, answers given:
compound smiles	experimental system	inhibition
CNC(=O)[C@@]12C[C@@H]1[C@@H](n1cnc3c(N(C)C)nc(Cl)nc31)[C@H](O)[C@@H]2O	Adenosine receptor A2a (Homo sapiens, UniProt P29274)	< 10%
O=C(O)[C@@]12C[C@@H]1[C@@H](n1cnc3c(NC(C4CC4)C4CC4)nc(Cl)nc31)[C@H](O)[C@@H]2O	Adenosine receptor A2a (Homo sapiens, UniProt P29274)	< 10%

Attention now turns to another entry.
Problem: Provide value of inhibition for this record tested with Adenosine receptor A2a (Homo sapiens, UniProt P29274): `CN(C)c1nc(Cl)nc2c1ncn2[C@H]1[C@H](O)[C@H](O)[C@]2(CO)C[C@H]12`
Solution: < 10%

---

# experimental system: UniProtKB P41595
# Sequence (P41595 whole entry): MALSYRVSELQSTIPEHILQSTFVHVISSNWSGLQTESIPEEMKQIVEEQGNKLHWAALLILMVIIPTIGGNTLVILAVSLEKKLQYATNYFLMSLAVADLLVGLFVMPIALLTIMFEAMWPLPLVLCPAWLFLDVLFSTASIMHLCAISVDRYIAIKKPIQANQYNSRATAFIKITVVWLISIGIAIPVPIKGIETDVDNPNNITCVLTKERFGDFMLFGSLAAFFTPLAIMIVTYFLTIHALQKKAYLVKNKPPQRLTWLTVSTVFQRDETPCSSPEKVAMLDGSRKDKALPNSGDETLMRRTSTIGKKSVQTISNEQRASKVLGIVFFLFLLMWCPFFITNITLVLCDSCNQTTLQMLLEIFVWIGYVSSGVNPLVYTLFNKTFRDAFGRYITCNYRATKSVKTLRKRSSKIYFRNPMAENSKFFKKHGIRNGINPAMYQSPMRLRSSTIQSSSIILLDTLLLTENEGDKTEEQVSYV
# condition context: HEK293, at 10 µM
attribute measured: inhibition

Some solved cases for reference:
compound smiles	experimental system	inhibition
CCOC(=O)[C@@]12C[C@@H]1[C@@H](n1cnc3c(N(C)C)nc(Cl)nc31)[C@H](O)[C@@H]2O	UniProtKB P41595	> 50%
CCOC(=O)[C@@]12C[C@@H]1[C@@H](n1cnc3c(NC(C4CC4)C4CC4)nc(Cl)nc31)[C@H](O)[C@@H]2O	UniProtKB P41595	> 50%
Clc1cccc(CNc2nc(Cl)nc3[nH]cnc23)c1	UniProtKB P41595	> 50%
Fc1ccc(C#Cc2nc(NCc3cccc(Cl)c3)c3nc[nH]c3n2)cc1F	UniProtKB P41595	> 50%
O[C@@H]1[C@H](O)[C@@H]2C[C@@H]2[C@H]1n1cnc2c(NCc3cccc(Cl)c3)nc(Cl)nc21	UniProtKB P41595	> 50%
CNC(=O)[C@H]1O[C@@H](n2cnc3c(N)ncnc32)[C@H](O)[C@@H]1O	UniProtKB P41595	< 10%
CNC(=O)[C@@]12C[C@@H]1[C@@H](n1cnc3c(N(C)C)nc(C#Cc4ccc(Cl)s4)nc31)[C@H](O)[C@@H]2O	UniProtKB P41595	< 10%
COC(=O)[C@@]12C[C@@H]1[C@@H](n1cnc3c(NC(C4CC4)C4CC4)nc(Cl)nc31)[C@H](O)[C@@H]2O	UniProtKB P41595	> 50%
CC(=O)NCCNC(=O)[C@@]12C[C@@H]1[C@@H](n1cnc3c(NC(C4CC4)C4CC4)nc(Cl)nc31)[C@H](O)[C@@H]2O	UniProtKB P41595	> 50%
Nc1nc(Cl)nc2c1ncn2[C@H]1[C@H](O)[C@H](O)[C@]2(CO)C[C@H]12	UniProtKB P41595	> 50%

Continue with the compound presented below.
Problem: Item under review: `OC[C@H]1O[C@@H](n2cnc3c(NC(C4CC4)C4CC4)ncnc32)[C@H](O)[C@@H]1O` . Reported inhibition?
Solution: 38%

---

# reported inhibition; entries follow
# experimental system: 5-hydroxytryptamine receptor 2A (Homo sapiens, UniProt P28223)
# Sequence (P28223 whole entry): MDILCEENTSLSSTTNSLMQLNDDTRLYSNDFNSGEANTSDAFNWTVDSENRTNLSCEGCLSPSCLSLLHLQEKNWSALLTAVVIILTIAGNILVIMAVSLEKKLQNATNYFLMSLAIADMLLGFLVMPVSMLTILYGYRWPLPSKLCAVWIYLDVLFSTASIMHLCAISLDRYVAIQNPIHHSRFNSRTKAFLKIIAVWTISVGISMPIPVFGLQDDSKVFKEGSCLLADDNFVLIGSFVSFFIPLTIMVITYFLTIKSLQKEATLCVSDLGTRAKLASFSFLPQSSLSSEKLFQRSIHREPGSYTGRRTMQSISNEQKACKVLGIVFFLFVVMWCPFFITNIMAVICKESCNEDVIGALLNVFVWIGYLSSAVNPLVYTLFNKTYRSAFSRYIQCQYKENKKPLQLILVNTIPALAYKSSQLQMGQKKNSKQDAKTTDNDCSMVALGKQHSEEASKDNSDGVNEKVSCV
# procedure summary: Displacement of [3H]ketanserin from human 5-HT2A receptor expressed in HEK-T cell membranes at 10 uM incubated for 90 mins under dark condition by microbeta scintillation counting method relative to control

Look over these answered cases.
compound smiles	inhibition
Clc1cccc(CNc2nc(Cl)nc3[nH]cnc23)c1	26%
COC(=O)[C@@]12C[C@@H]1[C@@H](n1cnc3c(NC(C4CC4)C4CC4)nc(Cl)nc31)[C@H](O)[C@@H]2O	< 10%

Problem: Fill in the recorded inhibition for this compound, with 5-hydroxytryptamine receptor 2A (Homo sapiens, UniProt P28223) as test system: `CN(C)c1nc(Cl)nc2c1ncn2[C@H]1[C@H](O)[C@H](O)[C@]2(C(=O)O)C[C@H]12`
Solution: < 10%

Problem: Hi! What's the reported inhibition for `CNC(=O)[C@@]12C[C@@H]1[C@@H](n1cnc3c(NC(C4CC4)C4CC4)nc(Cl)nc31)[C@H](O)[C@@H]2O` on 5-hydroxytryptamine receptor 2A (Homo sapiens, UniProt P28223)?
Solution: < 10%

Problem: Field: inhibition (5-hydroxytryptamine receptor 2A (Homo sapiens, UniProt P28223)). Entry: `CCOC(=O)[C@@]12C[C@@H]1[C@@H](n1cnc3c(N(C)C)nc(Cl)nc31)[C@H](O)[C@@H]2O`
Solution: < 10%
